Experiment: Solubility in 7 aqueous pH buffers and bio-relevant fluids at 37° C. (HPLC of supernatant; residual solids by XRPD)
Type: physicochemical
Settings: thermodynamic from solid; ES7, FeSSIF-v1, pH 5.0, 37° C., 2 h
REPORTED_ENDPOINT: solubility at 2 h (µg/mL)
Express the result in µg/mL but write the number alone.

Prompt: Quickly give me recorded solubility at 2 h for C=CC(=O)NCC(=O)N1CCN(Cc2cc3c(N4CCOCC4)nc(-c4cnc(NC(=O)OC)cc4C(F)(F)F)nn3c2)CC1 [Form A of Compound I]
Completion: 600

* * *

Assay: Solubility in 7 aqueous pH buffers and bio-relevant fluids at 37° C. (HPLC of supernatant; residual solids by XRPD)
Format: physicochemical
Conditions: ES3, pH 6.8 phosphate buffer (50 mM), 37° C., 2 h
Procedure: 20 mg of the free base Form A of Compound I was weighed into a 20 mL glass vial. Amounts of the salts equivalent to 20 mg anhydrous free base were weighed into a glass vial. 10 mL of solubility medium was added. The resulting suspensions/solutions were stirred at 37° C. at 400 rpm and sampled at 2 hours and at 24 hours, respectively. […] Supernatants were analyzed by HPLC and pH meter for solubility and pH value, respectively. […] Residual solids after the solubility test were analyzed by XRPD.
REPORTED_ENDPOINT: pH of supernatant, solubility for 2 h (pH)

molecule="C=CC(=O)NCC(=O)N1CCN(Cc2cc3c(N4CCOCC4)nc(-c4cnc(NC(=O)OC)cc4C(F)(F)F)nn3c2)CC1 [Form A of Compound I]" reported_value=(6.8)
molecule="C=CC(=O)NCC(=O)N1CCN(Cc2cc3c(N4CCOCC4)nc(-c4cnc(NC(=O)OC)cc4C(F)(F)F)nn3c2)CC1.O=P(O)(O)O [Form A* of Compound I phosphate salt]" reported_value=(6.6)
molecule="C=CC(=O)NCC(=O)N1CCN(Cc2cc3c(N4CCOCC4)nc(-c4cnc(NC(=O)OC)cc4C(F)(F)F)nn3c2)CC1.O=C(O)/C=C\\C(=O)O [Form B* of Compound I maleate salt]" reported_value=(6.6)
molecule=C=CC(=O)NCC(=O)N1CCN(Cc2cc3c(N4CCOCC4)nc(-c4cnc(NC(=O)OC)cc4C(F)(F)F)nn3c2)CC1.O=S(=O)(O)c1ccccc1 reported_value=(6.7)

* * *

Experiment: Solubility in 7 aqueous pH buffers and bio-relevant fluids at 37° C. (HPLC of supernatant; residual solids by XRPD)
Assay type: physicochemical
Details: aqueous buffer, thermodynamic from solid; ES3, pH 6.8 phosphate buffer (50 mM), 37° C., 2 h
REPORTED_ENDPOINT: solubility at 2 h (µg/mL)
Express the result in µg/mL but write the number alone.

Prompt: Quickly give me recorded solubility at 2 h for C=CC(=O)NCC(=O)N1CCN(Cc2cc3c(N4CCOCC4)nc(-c4cnc(NC(=O)OC)cc4C(F)(F)F)nn3c2)CC1 [Form A of Compound I]
Completion: 2.9

* * *

Assay: Solubility in 7 aqueous pH buffers and bio-relevant fluids at 37° C. (HPLC of supernatant; residual solids by XRPD)
Type: physicochemical
Conditions: ES3, pH 6.8 phosphate buffer (50 mM), 37° C., 24 h
REPORTED_ENDPOINT: pH of supernatant, solubility for 24 h (pH)

compound="C=CC(=O)NCC(=O)N1CCN(Cc2cc3c(N4CCOCC4)nc(-c4cnc(NC(=O)OC)cc4C(F)(F)F)nn3c2)CC1 [Form A of Compound I]" reported_value=(6.7)
compound="C=CC(=O)NCC(=O)N1CCN(Cc2cc3c(N4CCOCC4)nc(-c4cnc(NC(=O)OC)cc4C(F)(F)F)nn3c2)CC1.O=C(O)/C=C\\C(=O)O [Form B* of Compound I maleate salt]" reported_value=(6.6)
compound="C=CC(=O)NCC(=O)N1CCN(Cc2cc3c(N4CCOCC4)nc(-c4cnc(NC(=O)OC)cc4C(F)(F)F)nn3c2)CC1.O=P(O)(O)O [Form A* of Compound I phosphate salt]" reported_value=(6.5)
compound=C=CC(=O)NCC(=O)N1CCN(Cc2cc3c(N4CCOCC4)nc(-c4cnc(NC(=O)OC)cc4C(F)(F)F)nn3c2)CC1.O=S(=O)(O)c1ccccc1 reported_value=(6.6)
